Hey, just so you know, these numbers are from patent US20240182481A1.

Quick note: these are IC50 numbers for system: USP1-UAF1 (Homo sapiens, UniProt O94782)
Sequence (O94782 whole entry): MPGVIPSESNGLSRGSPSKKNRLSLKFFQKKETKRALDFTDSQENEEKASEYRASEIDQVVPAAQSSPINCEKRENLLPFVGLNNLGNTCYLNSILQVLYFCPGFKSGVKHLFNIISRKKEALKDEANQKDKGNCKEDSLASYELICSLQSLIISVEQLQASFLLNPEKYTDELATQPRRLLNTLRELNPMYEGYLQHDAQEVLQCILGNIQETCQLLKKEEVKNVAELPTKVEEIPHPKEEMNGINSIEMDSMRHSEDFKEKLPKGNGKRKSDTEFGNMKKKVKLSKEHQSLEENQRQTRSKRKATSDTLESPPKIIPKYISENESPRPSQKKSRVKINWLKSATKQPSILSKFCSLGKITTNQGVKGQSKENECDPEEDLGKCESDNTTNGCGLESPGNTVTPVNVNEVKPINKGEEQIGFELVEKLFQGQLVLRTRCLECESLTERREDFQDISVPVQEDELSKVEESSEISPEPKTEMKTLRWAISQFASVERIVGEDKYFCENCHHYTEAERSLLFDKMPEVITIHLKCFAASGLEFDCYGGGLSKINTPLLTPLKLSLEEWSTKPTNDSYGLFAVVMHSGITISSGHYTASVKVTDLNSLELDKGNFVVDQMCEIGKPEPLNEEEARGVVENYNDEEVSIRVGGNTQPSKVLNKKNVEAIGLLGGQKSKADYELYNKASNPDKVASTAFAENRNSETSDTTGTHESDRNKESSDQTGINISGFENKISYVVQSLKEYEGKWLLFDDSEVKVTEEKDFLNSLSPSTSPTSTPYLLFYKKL
Sequence (Q8TAF3 whole entry partner): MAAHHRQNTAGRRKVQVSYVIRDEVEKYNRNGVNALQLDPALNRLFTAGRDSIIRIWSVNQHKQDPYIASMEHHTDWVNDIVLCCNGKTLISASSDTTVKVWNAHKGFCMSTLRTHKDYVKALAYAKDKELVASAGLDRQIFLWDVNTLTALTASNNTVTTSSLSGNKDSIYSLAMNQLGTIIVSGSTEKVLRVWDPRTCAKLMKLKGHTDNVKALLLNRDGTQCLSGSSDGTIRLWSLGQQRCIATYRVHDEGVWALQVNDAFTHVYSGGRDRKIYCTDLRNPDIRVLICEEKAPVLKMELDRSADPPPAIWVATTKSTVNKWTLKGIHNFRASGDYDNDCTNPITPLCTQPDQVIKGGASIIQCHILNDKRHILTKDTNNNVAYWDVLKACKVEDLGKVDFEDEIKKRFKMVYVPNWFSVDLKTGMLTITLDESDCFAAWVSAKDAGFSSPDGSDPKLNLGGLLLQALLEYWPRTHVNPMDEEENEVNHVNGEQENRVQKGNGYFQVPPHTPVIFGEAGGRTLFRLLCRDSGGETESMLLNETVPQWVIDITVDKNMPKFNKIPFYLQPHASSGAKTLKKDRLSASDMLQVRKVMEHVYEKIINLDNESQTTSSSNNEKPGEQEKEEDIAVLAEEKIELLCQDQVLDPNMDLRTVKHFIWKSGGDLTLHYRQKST

# Smiles Input, IC50
measured = [
    ("CCCOc1ncccc1-c1ncc2[nH]cc(Cc3ccc(-c4nc(C(F)(F)F)cn4C)cc3)c2n1", "0.03 to 0.1 µM"),
    ("COc1ncnc(C2CC2)c1-c1ncc2nn(C(C)=O)c(Cc3ccc(-c4nc(C(F)(F)F)cn4C)cc3)c2n1", "0.03 to 0.1 µM"),
    ("COc1ncnc(C2(F)CC2)c1-c1ncc2[nH]nc(Cc3ccc(-c4nc(C(F)(F)F)cn4C)cc3)c2n1", "< 0.03 µM"),
    ("COc1ncnc(C2CC2)c1-c1ncc2c(n1)c(Sc1ccc(-c3nc(C(F)(F)F)cn3C)cc1)cn2C", "0.1 to 10 µM"),
    ("CC(C)c1ccccc1-c1ncc2[nH]cc(CN3CCC(c4nc(C(F)(F)F)cn4C)CC3)c2n1", "0.1 to 10 µM"),
    ("COc1ncnc(C2CC2)c1-c1cc2c(Cc3ccc(-c4nc(C(F)(F)F)cn4C)cc3)c[nH]c2cn1", "< 0.03 µM"),
]

----------
Test system: monoubiquitinated PCNA
Method Summary: AlphaLISA assay measuring monoubiquitinated PCNA in MDA-MB-436
Assay type: cell-based
Reported Conditions: Homo sapiens, read-out: Alpha LISA IC50
Measured Property: IC50

# Compound, Observed Measurement
records = [
    ("CC(C)n1cc(C(F)(F)F)nc1-c1ccc(Cc2c[nH]c3cnc(-c4cccnc4OC(F)F)nc23)cc1 [Compound 28]", "100 to 250 nM"),
    ("COc1ncnc(OC)c1-c1ncc2[nH]nc(Cc3ccc(-c4nc(C(F)(F)F)cn4C)cc3)c2n1 [Compound 144]", "100 to 250 nM"),
    ("Cn1cc(C(F)(F)F)nc1-c1ccc(Cc2c[nH]c3cnc(-c4c(C5CC5)ncnc4C4CC4)nc23)cc1 [Compound 193]", "< 100 nM"),
    ("[2H]C([2H])([2H])Oc1ncnc(C2CC2)c1-c1ncc2[nH]cc(Cc3ccc(-c4nc(C(F)(F)F)cn4C)cc3)c2n1 [Compound 204]", "< 100 nM"),
    ("COc1ncnc(C2CC2)c1-c1ncc2[nH]cc(Cc3ccc(-c4nc(C(F)(F)F)cn4C)c(F)c3)c2n1 [Compound 153]", "< 100 nM"),
    ("Cn1cc(C(F)(F)F)nc1-c1ccc(Cc2n[nH]c3cnc(-c4c(C5CC5)ccnc4C4CC4)nc23)cc1 [Compound 174]", "100 to 250 nM"),
    ("CCn1cc(C(F)(F)F)nc1-c1ccc(C(O)c2c[nH]c3cnc(-c4c(OC)ncnc4C4CC4)nc23)cc1 (stereo not shown) [Compound 33]", "250 to 10000 nM"),
]

----------
Tested Target: USP1-UAF1 (Homo sapiens)
Measured Property: IC50

# Molecule, Observed Measurement
data = [
    ("Cn1cc(C(F)(F)F)nc1-c1ccc(Cc2c[nH]c3cnc(-c4cccnc4OCC(F)(F)F)nc23)cc1 [Compound 78]", "< 30 nM"),
    ("CN(C)Cc1ccccc1-c1ncc2[nH]cc(Cc3ccc(-c4nc(C(F)(F)F)cn4C)cc3)c2n1 [Compound 9]", "≥ 10000 nM"),
    ("CC(C)c1ccccc1-c1ncc2[nH]cc(C(C)(O)c3ccc(-c4nc(C(F)(F)F)cn4C)cc3)c2n1 (stereo not shown) [Compound 48]", "< 30 nM"),
    ("COc1ncnc(C2CC2)c1-c1ncc2nn(C(C)C)c(Cc3ccc(-c4nc(C(F)(F)F)cn4C)cc3)c2n1 (single isomer, unassigned) [Compound 104]", "100 to 10000 nM"),
    ("CCn1c(C(F)(F)F)cnc1-c1ccc(Cc2c[nH]c3cnc(-c4c(OC)ncnc4C4CC4)nc23)cc1 [Compound 70]", "100 to 10000 nM"),
    ("COc1ncnc(C2CC2)c1-c1ncc2nn(S(C)(=O)=O)c(Cc3ccc(-c4nc(C(F)(F)F)cn4C)cc3)c2n1 [Compound 164]", "30 to 100 nM"),
    ("Cn1cc(C(F)(F)F)nc1-c1ccc(Cc2c[nH]c3cnc(-c4cccnc4C4CC4)cc23)cc1 [Compound 66]", "30 to 100 nM"),
]

----------
Test system: monoubiquitinated PCNA
Method Summary: AlphaLISA assay measuring monoubiquitinated PCNA in MDA-MB-436
Assay type: cell-based
Reported Conditions: Homo sapiens, read-out: Alpha LISA IC50
Measured Property: IC50

# Smiles Input, Measured Property, Observed Measurement
data = [
    ("CC(C)n1cc(C(F)(F)F)nc1-c1ccc(Cc2n[nH]c3cnc(-c4c(OC(F)F)ncnc4C4CC4)nc23)cc1", "IC50", "< 100 nM"),
    ("COc1nccc(C2CC2)c1-c1ncc2[nH]cc(Cc3ccc(-c4nc(C(F)(F)F)cn4C)cc3)c2n1", "IC50", "< 100 nM"),
    ("COc1ncnc(C2CC2)c1-c1ncc2nn(S(C)(=O)=O)c(Cc3ccc(-c4nc(C(F)(F)F)cn4C)cc3)c2n1", "IC50", "< 100 nM"),
    ("Cn1cc(C(F)(F)F)nc1-c1ccc(Cc2c(CN)[nH]c3cnc(-c4cccnc4C4CC4)nc23)cc1", "IC50", "100 to 250 nM"),
]

----------
Quick note: these are IC50 numbers for system: USP1-UAF1 (Homo sapiens, UniProt O94782)

# Compound, IC50
rows = [
    ("COc1ncnc(C2CC2)c1-c1ncc2[nH]nc(Cc3cc(F)c(-c4nc(C(F)(F)F)cn4C)c(F)c3)c2n1 [Compound 171]", "< 30 nM"),
    ("CC(C)c1ccccc1-c1ncc2[nH]cc(Cc3ccc(-c4nc(C(F)(F)F)cn4C)cc3)c2n1 [Compound 10]", "< 30 nM"),
    ("Cn1cc(C(F)(F)F)nc1-c1ccc(C(O)c2c[nH]c3cnc(-c4c(OC(F)F)ncnc4C4CC4)nc23)cc1 (single isomer, unassigned) [Compound 141]", "< 30 nM"),
    ("COc1ncnc(C2CC2)c1-c1ncc2[nH]cc(Oc3ccc(-c4nc(C(F)(F)F)cn4C)cc3)c2n1 [Compound 69]", "100 to 10000 nM"),
    ("COc1ncnc(C2CC2)c1-c1cc2c(Oc3ccc(-c4nc(C(F)(F)F)cn4C)cc3)c[nH]c2cn1 [Compound 167]", "30 to 100 nM"),
    ("COc1ncnc(C2CC2)c1-c1ncc2[nH]cc(C(C)c3ccc(-c4nc(C(F)(F)F)cn4C)cc3)c2n1 (single isomer, unassigned) [Compound 89]", "< 30 nM"),
    ("COc1ncnc(C(C)C)c1-c1ncc2[nH]cc(Cc3ccc(-c4nc(C(F)(F)F)cn4C)cc3)c2n1 [Compound 105]", "< 30 nM"),
    ("COc1ncnc(C2CC2)c1-c1nc(C(F)(F)F)c2[nH]nc(Cc3ccc(-c4nc(C(F)(F)F)cn4C)cc3)c2n1 [Compound 114]", "< 30 nM"),
    ("COc1ncnc(C2CC2)c1-c1ncc2[nH]cc(C(O)c3ccc(-c4nc(C(F)(F)F)cn4C)cc3)c2n1 (stereo not shown) [Compound 49]", "100 to 10000 nM"),
    ("COc1ncnc(C2(F)CC2)c1-c1ncc2[nH]cc(Cc3ccc(-c4nc(C(F)(F)F)cn4C)cc3)c2n1 [Compound 87]", "< 30 nM"),
    ("COc1ncnc(C2CC2)c1-c1ncc2[nH]cc([C@@H](c3ccc(-c4nc(C(F)(F)F)cn4C)cc3)C(C)C)c2n1 (single isomer, unassigned) [Compound 151]", "30 to 100 nM"),
    ("COc1ncnc(C2CC2(F)F)c1-c1ncc2[nH]cc(Cc3ccc(-c4nc(C(F)(F)F)cn4C)cc3)c2n1 (stereo not shown) [Compound 147]", "< 30 nM"),
    ("Cn1cc(C(F)(F)F)nc1-c1ccc(Cc2c[nH]c3cnc(-c4c(OC5CC5)ncnc4C4CC4)nc23)cc1 [Compound 155]", "< 30 nM"),
]

----------
Tested on: monoubiquitinated PCNA
Method Summary: AlphaLISA assay measuring monoubiquitinated PCNA in MDA-MB-436
Type: cell-based
Reported Conditions: Homo sapiens, read-out: Alpha LISA IC50
pIC50: −log10 of the molar value.
// reported pIC50 per item

# Smiles Input, Tested Target, pIC50
rows = [
    ("COc1ncnc(C2CC2)c1-c1ncc2[nH]cc(Cc3ccc(-c4nc(C(F)(F)F)cn4C4COC4)cc3)c2n1", "monoubiquitinated PCNA", "6.60 to 7.00"),
    ("CNCc1[nH]c2cnc(-c3cccnc3C3CC3)nc2c1Cc1ccc(-c2nc(C(F)(F)F)cn2C)cc1", "monoubiquitinated PCNA", "> 7.00"),
    ("COc1ncnc(C2CC2)c1-c1ncc2[nH]nc(Cc3ccc(-c4nc(C(F)(F)F)cn4C)cc3)c2n1", "monoubiquitinated PCNA", "> 7.00"),
    ("Cn1cc(C(F)(F)F)nc1-c1ccc(Nc2c[nH]c3cnc(-c4ccccc4C4CC4)nc23)cc1", "monoubiquitinated PCNA", "5.00 to 6.60"),
    ("COc1ncnc(OC)c1-c1ncc2[nH]cc(Cc3ccc(-c4nc(C(F)(F)F)cn4C)cc3)c2n1", "monoubiquitinated PCNA", "> 7.00"),
    ("COc1ncnc(C2CC2)c1-c1ncc2c(n1)c(Cc1ccc(-c3nc(C(F)(F)F)cn3C)cc1)nn2C", "monoubiquitinated PCNA", "> 7.00"),
    ("COc1cccc(OC)c1-c1ncc2[nH]cc(Cc3ccc(-c4nc(C(F)(F)F)cn4C)cc3)c2n1", "monoubiquitinated PCNA", "5.00 to 6.60"),
    ("COc1ncnc(C2CC2)c1-c1ncc2[nH]nc(Cc3ccc(-c4nc(C(F)(F)F)cn4C)c(F)c3)c2n1", "monoubiquitinated PCNA", "> 7.00"),
    ("COc1ncnc(C2CC2)c1-c1ncc2[nH]cc(Cc3ccc(-c4nc(C(F)(F)F)cn4C4CC4)cc3)c2n1", "monoubiquitinated PCNA", "> 7.00"),
    ("CCn1cc(C(F)(F)F)nc1-c1ccc(Cc2c3nc(-c4c(OC)ncnc4C4CC4)ncc3nn2C)cc1", "monoubiquitinated PCNA", "> 7.00"),
    ("COc1ncnc(C2CC2)c1-c1ncc2[nH]cc(Cc3ccc(-c4nc(C(F)(F)F)cn4C)cc3)c2n1", "monoubiquitinated PCNA", "> 7.00"),
    ("COc1ncnc(C2CC2)c1-c1ncc2[nH]nc(Cc3ccc(-c4nc(C#N)cn4C)cc3)c2n1", "monoubiquitinated PCNA", "5.00 to 6.60"),
    ("CCCOc1ncccc1-c1ncc2[nH]cc(Cc3ccc(-c4nc(C(F)(F)F)cn4C)cc3)c2n1", "monoubiquitinated PCNA", "6.60 to 7.00"),
    ("COc1nc(C)nc(C2CC2)c1-c1ncc2[nH]nc(Cc3ccc(-c4nc(C(F)(F)F)cn4C)cc3)c2n1", "monoubiquitinated PCNA", "> 7.00"),
    ("COc1ncnc(C2CC2)c1-c1ncc2[nH]nc(Cc3ccc(-n4nc(C(F)(F)F)cc4OC)cc3)c2n1", "monoubiquitinated PCNA", "6.60 to 7.00"),
]
